molecular target: human MCH-2R (human, UniProt Q969V1 1-340); test: cell-based or functional assay
Sequence (Q969V1 whole entry): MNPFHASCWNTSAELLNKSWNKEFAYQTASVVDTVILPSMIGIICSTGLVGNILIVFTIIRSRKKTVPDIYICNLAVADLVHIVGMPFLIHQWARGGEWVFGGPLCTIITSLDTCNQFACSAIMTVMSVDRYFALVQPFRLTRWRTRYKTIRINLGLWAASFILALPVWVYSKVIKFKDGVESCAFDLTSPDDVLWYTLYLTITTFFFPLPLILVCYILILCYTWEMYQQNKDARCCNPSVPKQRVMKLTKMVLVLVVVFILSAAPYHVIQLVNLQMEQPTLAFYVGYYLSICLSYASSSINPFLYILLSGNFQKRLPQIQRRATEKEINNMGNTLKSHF
Positions of bridges follow the written chain, without caps; N, C: chain ends. No end group written: not given here.
Measured Parameter: EC50, aequorin bioluminescence (nM)

Past entries and their recorded results:
{"Binder": "Ac-RCMLARVYRPC-NH2 (disulfide 2-11 (inferred)) [SEQ. ID. NO. 16 (Ala^10 analog of Ac-hMCH(6-16)-NH2)]", "Val": 15}
{"Binder": "Ac-RCMLKRVYRPC-NH2 (disulfide 2-11 (inferred)) [SEQ. ID. NO. 24 (Lys^10 analog of Ac-hMCH(6-16)-NH2)]", "Val": 6050}

P: Ac-RCMLNRVYRPC-NH2 (disulfide 2-11 (inferred), also called Asn^10 peptide) [SEQ. ID. NO. 25 (Asn^10 analog of Ac-hMCH(6-16)-NH2)]
Q: DFDMLRCMLGRVYRPCWQV (disulfide 7-16 (inferred)) [human MCH]
Lab notebook, comparison: P versus Q , higher EC50, aequorin bioluminescence goes to which? Label of pick, please.
P
